Examples of binders with documented ELISA OD450 @ 1 ug/ml follow.
Biological target: T1, His-tagged mouse B7-H3 (mouse, UniProt Q8VE98 29-244, limits assumed)
T1 construct: Bought His-tagged protein coated on the ELISA plate; also called mu B7-H3; murine B7-H3
T1 sequence (looked up): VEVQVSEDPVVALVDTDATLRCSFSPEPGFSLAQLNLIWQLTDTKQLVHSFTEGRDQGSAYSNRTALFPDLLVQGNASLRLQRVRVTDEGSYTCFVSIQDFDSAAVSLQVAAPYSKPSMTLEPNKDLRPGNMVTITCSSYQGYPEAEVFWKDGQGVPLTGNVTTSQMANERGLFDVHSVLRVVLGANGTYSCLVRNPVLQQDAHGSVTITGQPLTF
Assay: ELISA, coated His-tagged antigen, scFv-Fc 1 ug/ml
Kindly answer with a numeric value in OD450, unit omitted.

Record 40579p1.H7 (scFv, V domains shown, Tested as scFv-Fc (Expi293 supernatant)) VH: EVQLLESGGDLVQPGGSLRLSCAASGFNFSSYWMSWVRQAPGKGLEWVSGISISYGGNAYYADSVKGRFTVSRDNSKNTLYLQMNSLRAEDTAVYYCGRDRSPYQYRSMDVWGQGTTVTVSS VL: EIVLTQSPGTLSLSPGERATLSCRASQSIRSDLAWYQQKPGQAPRLLIYGASSRATGIPARFSGSGSGTEFTLTISSLQSEDFAVYYCQQYNNWPPLTFGGGTKVEIK , field ELISA OD450 @ 1 ug/ml: 1.92

Record 40579p1.F7 (scFv, V domains shown, Tested as scFv-Fc (Expi293 supernatant)) VH: EVQLLESGGGLVQPGGSLRLSCAASGFTFSDYYMSWVRQAPGKGLEWVSGISISYGGNAYYADSVKGRFTVSRDNSKNTLYLQMNSLRAEDTAVYYCGRDRSPYQYRSMDVWGQGTTVTVSS VL: EIVLTQSPGTLSLSPGERATLTCRASQSVGDFLAWYQQKPGQAPRLLIYGASTRAAGIPARFRGSGSGTDFTLTISSLQSEDFAVYYCQQYKNWPPLTFGGGTKVEIK , field ELISA OD450 @ 1 ug/ml: 1.53

Record 40511p1.1.D8 (scFv, V domains shown, Tested as scFv-Fc (Expi293 supernatant)) VH: DVQLVESGGGVVRPGESLRLSCAASGFTFSSYAMSWVRQAPGEGLEWVSSISGSGGSTLYADSVKGRFTISRDSSNNSLYLQMNSLRAEDTAVYYCAKARNNFFDYWGLGTLVTVSS VL: EIVLTQSPGTLTLSPGERATLSCRASRSILTSLAWYQQRPGQAPRLLIYGANSRATGIPDRFSGSGSGTEFTLTISSLQSEDFAVYYCQQYYDWLTITFGGGTKVEIK , field ELISA OD450 @ 1 ug/ml: 0.891

Record 40633p1.1.A11 (scFv, V domains shown, Tested as scFv-Fc (Expi293 supernatant)) VH: EVQLLESGGDLVQPGGSLRLSCAASGFTFNTYWMNWVRQAPGKGLEWVAGINSKGGVTYYADSVKGRFTISRDNSKNTLYLQMNSLRAEDTAVYYCADWNDYDIMDVWGQGTTVTVSS VL: QSVLTQPPSASGTPGQTITISCSGSSSNVGRRTVNWYQQLPGTAPKLLIYTNAQRPSGVPDRFSGSKSGTSASLAISGLQSEDEADYYCATWDDSLNAWVFGGGTKLTVL , field ELISA OD450 @ 1 ug/ml: 1.27

The reported measurements were obtained from patent US20260008852A1.
